# assay system: human Her2 exon 20 insertion mutation YVMA (Homo sapiens, UniProt P04626, INS775YVMA)
# Construct: expressed in transfected cells; host or cells: NIH-3T3, lentiviral transduction, puromycin selection
# Sequence (P04626 with tags, fused parts or gaps INS775YVMA): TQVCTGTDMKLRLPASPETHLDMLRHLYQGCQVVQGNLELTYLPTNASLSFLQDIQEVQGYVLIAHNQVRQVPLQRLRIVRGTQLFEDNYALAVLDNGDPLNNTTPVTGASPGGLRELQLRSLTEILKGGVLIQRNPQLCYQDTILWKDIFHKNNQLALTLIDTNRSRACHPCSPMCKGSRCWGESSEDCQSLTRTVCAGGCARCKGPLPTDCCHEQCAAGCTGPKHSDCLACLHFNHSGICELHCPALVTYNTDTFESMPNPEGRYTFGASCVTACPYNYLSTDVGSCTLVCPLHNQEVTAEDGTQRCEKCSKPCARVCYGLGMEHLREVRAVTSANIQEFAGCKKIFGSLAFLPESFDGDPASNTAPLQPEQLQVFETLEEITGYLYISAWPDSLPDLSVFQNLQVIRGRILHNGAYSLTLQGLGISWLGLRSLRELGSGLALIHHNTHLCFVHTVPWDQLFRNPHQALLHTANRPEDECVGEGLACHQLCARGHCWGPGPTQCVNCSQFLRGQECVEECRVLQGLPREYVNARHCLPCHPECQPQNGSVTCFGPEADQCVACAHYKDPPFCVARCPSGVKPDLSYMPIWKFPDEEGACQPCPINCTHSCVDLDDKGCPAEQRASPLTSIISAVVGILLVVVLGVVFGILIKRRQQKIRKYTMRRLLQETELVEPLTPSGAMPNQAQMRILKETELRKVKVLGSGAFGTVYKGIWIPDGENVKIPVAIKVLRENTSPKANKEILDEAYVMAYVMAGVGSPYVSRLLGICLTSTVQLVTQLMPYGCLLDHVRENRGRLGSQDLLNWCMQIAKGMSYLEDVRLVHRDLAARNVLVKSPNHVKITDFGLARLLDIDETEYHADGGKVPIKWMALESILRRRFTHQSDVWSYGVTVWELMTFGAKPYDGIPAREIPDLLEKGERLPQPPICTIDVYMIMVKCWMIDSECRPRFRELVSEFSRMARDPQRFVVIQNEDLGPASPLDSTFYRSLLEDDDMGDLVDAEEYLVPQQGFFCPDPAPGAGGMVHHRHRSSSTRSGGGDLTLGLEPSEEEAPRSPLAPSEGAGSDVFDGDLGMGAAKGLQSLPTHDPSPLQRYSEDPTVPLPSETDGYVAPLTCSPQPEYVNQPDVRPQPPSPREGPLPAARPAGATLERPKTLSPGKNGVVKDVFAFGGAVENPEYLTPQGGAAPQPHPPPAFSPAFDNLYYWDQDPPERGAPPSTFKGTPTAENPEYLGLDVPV
# protocol notes: Her2 Exon 20 YVMA insertion cellular phosphorylation inhibition (MSD p-Her2 Y1248/total Her2);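 note: lentivirally transduced NIH-3T3 cells in 1% FBS medium, electrochemiluminescent MSD read-out, graded compound concentrations at 37 °C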
# Assay type: cell-based
# experimental setup: Her2 YVMAins cells, 4 h compound
Where a name gives a salt, the structure may show the parent alone.
Catalogue of IC50 values
Please state the figure in nM; there is no need to write the unit.

For this compound ( C=CC(=O)Nc1cc(Nc2nccc(Nc3cc(Cl)c(F)cc3C(C)(O)C(F)(F)F)n2)c(OC)cc1N1CC[C@@H](N(C)C)C1 (stereo partly shown) ), measured IC50 is 26

For this compound ( "C=CC(=O)Nc1cc(Nc2ncnc(Nc3cc(F)c(C4CC4)cc3C(C)(C)O)n2)c(OC)cc1N1CC[C@@H]2CN(C)C[C@@H]21" ), measured IC50 is 3

For this compound ( C=CC(=O)Nc1cc(Nc2nccc(Nc3cc(Cl)c(F)cc3C(C)(C)O)n2)c(OC)cc1N1C[C@H](N(C)C)C2(CC2)C1 [Compound 83, formic acid salt] ), measured IC50 is 87.6

For this compound ( "C=CC(=O)Nc1cc(Nc2ncnc(Nc3ccc4[nH]ccc4c3C(C)(C)O)n2)c(OC)cc1N(C)CCN(C)C" ), measured IC50 is 4.4

* * *

# assay system: human EGFR exon 20 V769_D770insASV (Homo sapiens, UniProt P00533, INS769ASV)
# Sequence (P00533 with tags, fused parts or gaps INS769ASV): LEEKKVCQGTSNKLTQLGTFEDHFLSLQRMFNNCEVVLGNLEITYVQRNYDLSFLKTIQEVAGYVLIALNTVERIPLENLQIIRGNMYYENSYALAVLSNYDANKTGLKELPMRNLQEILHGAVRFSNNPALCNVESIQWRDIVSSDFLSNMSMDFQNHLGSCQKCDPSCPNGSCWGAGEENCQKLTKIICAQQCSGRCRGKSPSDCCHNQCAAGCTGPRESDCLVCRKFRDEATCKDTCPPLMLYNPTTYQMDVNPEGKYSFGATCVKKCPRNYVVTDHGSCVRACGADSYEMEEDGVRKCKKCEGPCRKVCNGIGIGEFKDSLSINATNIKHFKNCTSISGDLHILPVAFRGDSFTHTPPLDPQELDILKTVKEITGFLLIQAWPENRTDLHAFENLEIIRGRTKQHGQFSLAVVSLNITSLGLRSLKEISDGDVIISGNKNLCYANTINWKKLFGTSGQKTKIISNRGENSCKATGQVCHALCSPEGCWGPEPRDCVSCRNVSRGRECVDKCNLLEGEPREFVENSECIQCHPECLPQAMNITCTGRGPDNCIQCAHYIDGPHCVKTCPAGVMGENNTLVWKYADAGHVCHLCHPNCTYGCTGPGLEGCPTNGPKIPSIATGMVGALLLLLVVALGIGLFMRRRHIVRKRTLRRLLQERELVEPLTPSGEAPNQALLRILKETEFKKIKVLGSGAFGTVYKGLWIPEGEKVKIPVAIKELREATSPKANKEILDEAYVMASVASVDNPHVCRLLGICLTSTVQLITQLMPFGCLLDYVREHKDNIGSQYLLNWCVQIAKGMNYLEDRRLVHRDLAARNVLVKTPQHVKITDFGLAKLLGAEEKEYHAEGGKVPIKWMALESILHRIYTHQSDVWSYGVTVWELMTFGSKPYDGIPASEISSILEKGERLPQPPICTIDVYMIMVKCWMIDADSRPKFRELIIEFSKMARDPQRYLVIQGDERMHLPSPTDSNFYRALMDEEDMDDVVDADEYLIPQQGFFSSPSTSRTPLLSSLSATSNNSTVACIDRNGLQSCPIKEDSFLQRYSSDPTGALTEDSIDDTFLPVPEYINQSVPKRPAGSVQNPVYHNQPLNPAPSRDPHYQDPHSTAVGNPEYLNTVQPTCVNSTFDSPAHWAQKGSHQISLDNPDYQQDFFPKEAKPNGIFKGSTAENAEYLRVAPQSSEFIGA
# protocol notes: EGFR Exon20 ASV insertion cellular phosphorylation inhibition (MSD pEGFR Y1068/total EGFR)
# experimental setup: Ba/F3 EGFR ASV ins cells, 4 h compound, p-EGFR(Y1068)/total EGFR
assay endpoint: pIC50
Recall that pIC50 is obtained by taking minus log10 of the concentration measured in molar.

C=CC(=O)Nc1cc(Nc2ncnc(Nc3cc(F)c(F)cc3C(C)(C)O)n2)c(OC)cc1N1CC[C@@H](N(C)C)C1    7.71

For this compound ( "C=CC(=O)Nc1cc(Nc2ncnc(Nc3ccc(F)c(F)c3C(C)(C)O)n2)c(OC)cc1N(C)CCN(C)C" ), measured pIC50 is 7.20

* * *

# assay system: human EGFR exon 20 V769_D770insASV (Homo sapiens, UniProt P00533, INS769ASV)
# protocol notes: EGFR Exon20 ASV insertion cellular phosphorylation inhibition (MSD pEGFR Y1068/total EGFR);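 note: electrochemiluminescent readout on an MSD SECTOR Imager, IL3-independent transduced cells in medium with 1% FBS, compound concentration series at 37 °C and 5% CO2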
# experimental setup: Ba/F3 EGFR ASV ins cells, 4 h compound, p-EGFR(Y1068)/total EGFR
Structures can show the parent of a compound that is named as a salt.
assay endpoint: IC50 (nM)
Please state the figure in nM; there is no need to write the unit.

Sample answers from the record:
C=CC(=O)Nc1cc(Nc2ncnc(Nc3cc(F)c(F)cc3C(C)(C)O)n2)c(OC)cc1N(C)CCN(C)C    6.1
C=CC(=O)Nc1cc(Nc2ncnc(Nc3cc(Cl)c(Cl)cc3C(C)(C)O)n2)c(OC)cc1N1CC[C@@H](N(C)C)C1    12.3
C=CC(=O)Nc1cc(Nc2nccc(Nc3cc(Cl)c(F)cc3C(C)(C)O)n2)c(OC)cc1N1CC[C@@H](NC)C1 [Compound 80, TFA salt]    36.8

For this compound ( "C=CC(=O)Nc1cc(Nc2ncnc(Nc3ccccc3C(C)(C)O)n2)c(OC)cc1N1CCC[C@@H](N(C)C)C1" ), measured IC50 is 386
